assay: gradient 5% acetonitrile 3 min, to 50% in 2 min, to 85% in 15 min, held 3 min, 100 µL/min; conditions: column: Zorbax Extend-C18 2.1 x 50 mm; eluents: water / acetonitrile, 0.1% formic acid
quantity_kind: RP-LC retention time
Give your result as the value with the unit written after it.

Could you report RP-LC retention time for every entry in the following list?
1. CCOc1ccc(S(=O)(=O)NC2CCN(c3ccc(=O)[nH]n3)C2)cc1 (stereo not given)
2. O=C(c1ccc2ccnc(N3CCN(c4ccc(F)cc4)CC3)c2c1)N1CCN(c2ncccn2)CC1
3. O=C(c1cn2ccnc(-c3ccccc3)c2n1)N1CCCC1
4. Clc1cccc(-c2noc(Cc3nnc(-c4ccccc4)o3)n2)c1

671 s
749 s
831 s
1070 s

Data origin: the METLIN SMRT retention time set (Domingo-Almenara et al. 2019)
